# test-target: T1, cMetECDHis (human, UniProt P08581 25-932, limits assumed, biotinylated in the cross-block ELISA of Example 17)
# T1 construct: Expressed in HEK-293F cells; also called soluble cMetECDHis; biotinylated cMetECDHis
# experimental-details: cross-block ELISA; competitor 022
Please provide measured residual binding, % of no competitor for the entries that follow.
Reply numerically in %, unit not repeated.

Returns the measured residual binding, % of no competitor for the input binder. Input: anti-c-Met HuMab 035 (IgG1) (antibody, V domains shown, also called P1016-035; TH1016-035-D09) VH: EVQLVQSGAEVKKPGESLKISCKGSGYSFTSYWIGWVRQMPGKGLEWMGIIYPGDSDTRYSPSFQGQVTISADKSISTAYLQWNSLKASDTAMYYCARQEITGEFDYWGQGTLVTVSS VL: AIQLTQSPSSLSASVGDRVTITCRASQGISSALAWYQQKPGKAPKLLIYDASSLESGVPSRFSGSGSGTDFTLTISSLQPEDFATYYCQQFNSYPMYTFGQGTKLEIK
54.6

Same again, this time with anti-c-Met HuMab 181 (IgG1) (antibody, V domains shown, also called TH1016-181; PC1016-181) VH: QVQLVQSGAEVKKPGASVKVSCKASGYTFTSYGISWVRQAPGQGLEWMGWISTYNGYTNYAQKLQGRVTMTTDTSTSTAYMELRSLRSDDTAVYYCARDLRGTAYFDYWGQGTLVTVSS VL: DIQMTQSPSSVSASVGDRVTITCRASQGISNWLAWYQHKPGKAPKLLIYAASSLLSGVPSRFSGSGSGTDFTLTISSLQPEDFATYYCQQANSFPITFGQGTRLEIK
92.5
